# System: COLO 205 colon
# protocol.details: NCI tumour cell line growth inhibition, 48 h
measured.attribute: TGI (µM)
Field format: number, assumed µM, no unit text.

Quick one: TGI for COC(=O)/C(=C\c1c(C)[nH]c2ccccc12)S(=O)(=O)c1ccccc1 ?
22.1

Please do the same for O=C(Nc1ccc(Cl)cc1)c1cc2ccccc2cc1O as well.
18.7

====

# Test system: PC-3 prostate
# protocol.details: NCI tumour cell line growth inhibition, 48 h
Give measured GI50 for each item. Keep answers brief.

Quick one: GI50 for COc1ccc(-c2nc(-c3ccccc3)c(-c3ccccc3)n2C2CC2)cc1OC1CCCC1 ?
22.6 µM

Please do the same for OCCCCC#Cc1ccccc1C#Cc1ccccc1C(F)(F)F as well.
8.77 µM

Please do the same for O=c1cc(-c2ccccc2)nc2n1CCN2Cc1ccccc1 as well.
32.3 µM

Please do the same for Cc1ccc2c(=O)c3cccc(CC(=O)O)c3oc2c1C as well.
> 100 µM

Please do the same for COc1ccc(/C=C\c2cc(OC)c(OC)c(OC)c2)cc1OCC(=O)Nc1nc2ccc(C(F)(F)F)cc2s1 as well.
4.32 µM

Please do the same for O=C1c2ccccc2-c2c1c1ccccc1c(=O)n2CCNCCNCCn1c2c(c3ccccc3c1=O)C(=O)c1ccccc1-2 as well.
0.701 µM

Please do the same for Cc1cc2c(F)c(Oc3ncnn4cc(OC[C@@H](C)OC(=O)[C@H](C)N)c(C)c34)ccc2[nH]1 as well.
5.28 µM

Please do the same for COC(=O)/C(=C\c1c(C)[nH]c2ccccc12)S(=O)(=O)c1ccccc1 as well.
5.54 µM

Please do the same for S=C(N/N=C/c1ccccn1)Nc1ccccn1 as well.
1.46 µM

Please do the same for C[N+](C)(CCCCCC[N+](C)(C)CCCN1C(=O)c2cc3ccccc3cc2C1=O)CCCN1C(=O)c2ccccc2C1=O as well.
> 37.5 µM

Please do the same for Cc1[nH]c(/C=C2\C(=O)Nc3ccc(F)cc32)c(C)c1C(=O)NC[C@H](O)CN1CCOCC1 as well.
2.64 µM

Please do the same for CN(C)CCCNC(=O)c1cc(NC(=O)c2cc(NC(=O)c3cc(NC(=O)CCc4c[nH]c5ccccc45)cn3C)cn2C)cn1C as well.
> 100 µM

Please do the same for CC[N+](CC)(CC)CCCn1c2c(c3ccccc3c1=O)C(=O)c1ccccc1-2 as well.
9.13 µM

Please do the same for CC(NNC(=S)N1CCCCCC1)c1ccc2ccccc2n1 (centres undefined) as well.
2.07 µM
